The reported measurements were obtained from patent US10011562B2.

# System: sciatic nerve of rats
# TEST SUMMARY: First local anesthetic experiment of rats: blocking of sciatic nerve, mechanical withdrawal threshold (VFH, von Frey filaments)
# Type: in vivo
# CONDITION LABEL: rats, 0.2 ml injected close to sciatic nerve; tested drug 5 mmol/L solution (micelle); lidocaine 2% (84 mmol/L); threshold above 60 g
Where a name gives a salt, the structure may show the parent alone.
Rule: The hold time of sensation blocking under 70 h gives f, otherwise t.

Prompt line: Quick check, The hold time of sensation blocking >= 70 h? CCN(CC)CC(=O)Nc1c(C)cccc1C [2% lidocaine hydrochloride, lidocaine hydrochloride, reference compound]
Response line: f

Prompt line: Quick check, The hold time of sensation blocking >= 70 h? CCCCCCCCCOC(=O)OCC[N+](CC)(CC)CC(=O)Nc1c(C)cccc1C [Example21product]
Response line: t

Prompt line: Quick check, The hold time of sensation blocking >= 70 h? CCCCCCCCCCCC(=O)OCC[N+](CC)(CC)CC(=O)Nc1c(C)cccc1C [Example7product]
Response line: t

Prompt line: Quick check, The hold time of sensation blocking >= 70 h? CCCCCCCCCOC(=O)OCC[N+](CC)(CC)CC(=O)Nc1c(C)cccc1C [Example22product]
Response line: t

Prompt line: Quick check, The hold time of sensation blocking >= 70 h? CCCCCCCCCCCCCCCC(=O)OCC[N+](CC)(CC)CC(=O)Nc1c(C)cccc1C [Example8product]
Response line: t

----------
Reported Effective local anesthetic time values are given for each entry in this list.
# Tested on: sciatic nerve of rats
# TEST SUMMARY: Third local anesthetic experiment of rats: hydrogels embedded near the sciatic nerve, mechanical withdrawal threshold (VFH)
# Type: in vivo
# CONDITION LABEL: rat, in vivo
# output: bare number, implied unit min

Please review the following examples before continuing.
{"MOLECULE": "CCCCCCCCOC(=O)OCC[N+](CC)(CC)CC(=O)Nc1c(C)cccc1C [Example17product]", "SYSTEM": "sciatic nerve of rats", "UNITS OF MEASURE": "min", "VAL": 63}
{"MOLECULE": "CCCCCCCCOC(=O)OCC[N+](CC)(CC)CC(=O)Nc1c(C)cccc1C [Example16product]", "SYSTEM": "sciatic nerve of rats", "UNITS OF MEASURE": "min", "VAL": 56}
{"MOLECULE": "CCCCCCCCCCCCOC(=O)OCC[N+](CC)(CC)CC(=O)Nc1c(C)cccc1C [Example27product]", "SYSTEM": "sciatic nerve of rats", "UNITS OF MEASURE": "min", "VAL": 90}

Prompt line: Return Effective local anesthetic time (reported value) for this molecule: CCCCCCCCCCOC(=O)OCC[N+](CC)(CC)CC(=O)Nc1c(C)cccc1C [Example24product]
Response line: 78

Prompt line: Return Effective local anesthetic time (reported value) for this molecule: CCCCCCCCCCCCCCOC(=O)OCC[N+](CC)(CC)CC(=O)Nc1c(C)cccc1C [Example28product]
Response line: 88

Prompt line: Return Effective local anesthetic time (reported value) for this molecule: CCCCCCCCCCCCOC(=O)OCC[N+](CC)(CC)CC(=O)Nc1c(C)cccc1C [Example26product]
Response line: 88

Prompt line: Return Effective local anesthetic time (reported value) for this molecule: CCCCCCCCCCCC(=O)OCC[N+](CC)(CC)CC(=O)Nc1c(C)cccc1C [Example9product]
Response line: 75

Prompt line: Return Effective local anesthetic time (reported value) for this molecule: CCCCCCCCCCCCCCCCOC(=O)OCC[N+](CC)(CC)CC(=O)Nc1c(C)cccc1C [Example30product]
Response line: 95

Prompt line: Return Effective local anesthetic time (reported value) for this molecule: CCCCCCCCCCCCCCCC(=O)OCC[N+](CC)(CC)CC(=O)Nc1c(C)cccc1C [Example10product]
Response line: 85

----------
# Tested on: sciatic nerve of rats
# TEST SUMMARY: First local anesthetic experiment of rats: blocking of sciatic nerve, motor function by hindlimb postural extensor thrust (PET)
# Format: in vivo
# CONDITION LABEL: rats, 0.2 ml injected close to sciatic nerve; tested drug 5 mmol/L solution (micelle); lidocaine 2% (84 mmol/L)
Structures can show the parent of a compound that is named as a salt.
OBSERVABLE: The hold time of motor blocking (h)
# output: bare number, implied unit h

Please review the following examples before continuing.
{"COMPOUND": "CCCCCCCCCOC(=O)OCC[N+](CC)(CC)CC(=O)Nc1c(C)cccc1C [Example21product]", "The hold time of motor blocking (h)": 60}
{"COMPOUND": "CCN(CC)CC(=O)Nc1c(C)cccc1C [2% lidocaine hydrochloride, lidocaine hydrochloride, reference compound]", "The hold time of motor blocking (h)": 2}
{"COMPOUND": "CCCCCCCCCOC(=O)OCC[N+](CC)(CC)CC(=O)Nc1c(C)cccc1C [Example22product]", "The hold time of motor blocking (h)": 61}
{"COMPOUND": "CCCCCCCCCCCC(=O)OCC[N+](CC)(CC)CC(=O)Nc1c(C)cccc1C", "The hold time of motor blocking (h)": 70}
{"COMPOUND": "CC[N+](CC)(CCOC(C)=O)CC(=O)Nc1c(C)cccc1C", "The hold time of motor blocking (h)": 72}

Now turn to the next compound.
Prompt line: Return The hold time of motor blocking (reported value) for this compound: CCCCCCCCCCCCCCCC(=O)OCC[N+](CC)(CC)CC(=O)Nc1c(C)cccc1C
Response line: 70

----------
# Test system: sciatic nerve of rats
# TEST SUMMARY: First local anesthetic experiment of rats: blocking of sciatic nerve, motor function by hindlimb postural extensor thrust (PET)
# Type: in vivo
# CONDITION LABEL: rat, in vivo
Reported The hold time of motor blocking values are given for each entry in this list.
# output: bare number, implied unit h

Please review the following examples before continuing.
{"MOLECULE": "CC[N+](CC)(COC(=O)C(C)(C)C)CC(=O)Nc1c(C)cccc1C", "UNITS OF MEASURE": "h", "VAL": 8}
{"MOLECULE": "CCCCCCCCCCOC(=O)OCC[N+](CC)(CC)CC(=O)Nc1c(C)cccc1C [Example24product]", "UNITS OF MEASURE": "h", "VAL": 75}
{"MOLECULE": "CCCCOC(=O)OCC[N+](CC)(CC)CC(=O)Nc1c(C)cccc1C", "UNITS OF MEASURE": "h", "VAL": 80}

Now turn to the next molecule.
Prompt line: Return The hold time of motor blocking (reported value) for this molecule: CCCCCCCCCCCCOC(=O)OCC[N+](CC)(CC)CC(=O)Nc1c(C)cccc1C [Example26product]
Response line: 80

----------
# Test system: sciatic nerve of rats
# TEST SUMMARY: First local anesthetic experiment of rats: blocking of sciatic nerve, mechanical withdrawal threshold (VFH, von Frey filaments)
# Assay type: in vivo
# CONDITION LABEL: rat, in vivo
Reported The hold time of sensation blocking values are given for each entry in this list.

Please review the following examples before continuing.
{"COMPOUND": "CCCC(=O)OC[N+](CC)(CC)CC(=O)Nc1c(C)cccc1C", "VAL": "8 h"}
{"COMPOUND": "CCCCCCCCCCCCCCCCCCOC(=O)OCC[N+](CC)(CC)CC(=O)Nc1c(C)cccc1C", "VAL": "78 h"}

Now turn to the next compound.
Prompt line: Return The hold time of sensation blocking (reported value) for this compound: CCCCCCCCCCCCOC(=O)OCC[N+](CC)(CC)CC(=O)Nc1c(C)cccc1C [Example27product]
Response line: 78 h

----------
# Test system: sciatic nerve of rats
# TEST SUMMARY: Third local anesthetic experiment of rats: hydrogels embedded near the sciatic nerve, mechanical withdrawal threshold (VFH)
# Format: in vivo
# CONDITION LABEL: rat, in vivo
OBSERVABLE: Effective local anesthetic time (min)
# output: bare number, implied unit min

Prompt line: Return Effective local anesthetic time (reported value) for this molecule: CCCCCCCOC(=O)OCC[N+](CC)(CC)CC(=O)Nc1c(C)cccc1C [Example15product]
Response line: 53

Prompt line: Return Effective local anesthetic time (reported value) for this molecule: CCCCCCCCCCCOC(=O)OCC[N+](CC)(CC)CC(=O)Nc1c(C)cccc1C [Example25product]
Response line: 82

Prompt line: Return Effective local anesthetic time (reported value) for this molecule: CCCCCCCCCCCCCCCCOC(=O)OCC[N+](CC)(CC)CC(=O)Nc1c(C)cccc1C [Example29product]
Response line: 92

Prompt line: Return Effective local anesthetic time (reported value) for this molecule: CCCCCCCCCOC(=O)OCC[N+](CC)(CC)CC(=O)Nc1c(C)cccc1C [Example18product]
Response line: 60

Prompt line: Return Effective local anesthetic time (reported value) for this molecule: CCCCCCOC(=O)OCC[N+](CC)(CC)CC(=O)Nc1c(C)cccc1C [Example13product]
Response line: 45
